These measurements were taken from PubChem BioAssay AID2060894.

- System: K12877-001-R-J1-PDC complex spheroid viability;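 also: tumour cells co-cultured with HUVEC and mesenchymal stem cells in spheroids; spheroids exposed to agents for one week before readout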
- experimental details: Anticancer human tumor K12877-001-R-J1-PDC patient-derived lung adenocarcinoma cell line growth inhibition [RAS]
- measurement parameters: second compound 0.003 µM; first compound 1 µM; hits give low values

compound | viability, T/C / %
C=CC(=O)N1CCN(c2nc(OCC3CCCN3C)nc3c(F)c(-c4nc(N)cc(C)c4C(F)(F)F)c(Cl)cc23)C(C)C1 (configuration not stated) + CCn1c(-c2cccnc2C(C)OC)c2c3cc(ccc31)N1CCOC(CC(NC(=O)C(C(C)C)N(C)C(=O)C3(F)CCN(C(=O)C#CC(C)(C)N(C)C)CC3)C(=O)N3CCCC(N3)C(=O)OCC(C)(C)C2)C1 | 71.1
O=C(c1ccc(F)c(F)c1Nc1ccc(I)cc1F)N1CC(O)([C@@H]2CCCCN2)C1 + CCn1c(-c2cccnc2C(C)OC)c2c3cc(ccc31)N1CCOC(CC(NC(=O)C(C(C)C)N(C)C(=O)C3(F)CCN(C(=O)C#CC(C)(C)N(C)C)CC3)C(=O)N3CCCC(N3)C(=O)OCC(C)(C)C2)C1 | 28.6
